# System: SF-539
# EXPERIMENTAL DETAILS: NCI tumour cell line growth inhibition, 48 h
Activity calls are given as the source filed them. No stated cut-off is given here; in the data, active = GI50 up to about 1.1 µM and inactive = higher.
ENDPOINT NAME: GI50

compound="COc1ccc(C2=Nc3c(nc(SC)[nH]c3=O)NC(c3ccccc3)C2)cc1 (centres undefined)" endpoint_name=GI50 reported_value="19.4 µM (inactive)"
compound=CN(CCNC(=O)c1nn(-c2ccccc2)c2c1Cc1ccccc1-2)CCNC(=O)c1nn(-c2ccccc2)c2c1Cc1ccccc1-2 endpoint_name=GI50 reported_value="2.17 µM (inactive)"
compound=COC(=O)/C(=C\c1cn(C(C)=O)c2ccccc12)P(=O)(OC)OC endpoint_name=GI50 reported_value="16 µM (inactive)"
compound=CC(=O)N(C(=O)CC(=O)NNCc1ccccc1Cl)c1ccc(Cl)cc1 endpoint_name=GI50 reported_value="> 10 µM (inactive)"

====

GI50 values, listed per item
# Tested on: UO-31
# EXPERIMENTAL DETAILS: NCI tumour cell line growth inhibition, 48 h
The source made the active and inactive calls. Rule as the data show it: active = GI50 up to about 1.1 µM and inactive = higher. Where a SMILES comes first, the peptide text is derived from it. [ ]: non-standard residue; d: D form. Phe(4-NO2) = N[CH](Cc1ccc([N+](=O)[O-])cc1)C(=O)O
ENDPOINT NAME: GI50

molecule="CC(NC(=O)C(Cc1ccc([N+](=O)[O-])cc1)NC(=O)C(N)CCCCN)C(=O)NC(Cc1ccc([N+](=O)[O-])cc1)C(N)=O (stereo not drawn) (H-K[Phe(4-NO2)]A[Phe(4-NO2)]-NH2; configuration not given here)" tgt=UO-31 reported_value="44.4 µM (inactive)"
molecule=Cc1c(C)c2c(c(N)c1C#N)C(=O)N(Nc1ccccc1)C2=O tgt=UO-31 reported_value="78.5 µM (inactive)"
molecule=COc1ccc(-c2nc3c(C(=O)NCCN(C)C)cccc3c3ccccc23)cc1 tgt=UO-31 reported_value="1.16 µM (inactive)"

====

# Test system: PC-3
# EXPERIMENTAL DETAILS: NCI tumour cell line growth inhibition, 48 h
Active and inactive are the calls of the source. Rule as the data show it: active = GI50 up to about 1.1 µM and inactive = higher.
ENDPOINT NAME: GI50

compound=COc1cccc2c1Cc1cc(-c3ccccc3)[n+](C)n1-2 endpoint_name=GI50 reported_value="11.4 µM (inactive)"
compound=COc1ccc(/C=N/c2ccc(-c3nc4ccccc4[nH]3)cc2)cc1OC endpoint_name=GI50 reported_value="> 100 µM (inactive)"
compound="COc1nc2ccc(Cl)c(C(O)c3ccccc3)c2nc1OC (configuration not stated)" endpoint_name=GI50 reported_value="26.5 µM (inactive)"
compound=Cc1cc(C)nc(NS(=O)(=O)c2ccc(Nc3c4ccccc4nc4ccc(C(=O)Nc5ccc(S(=O)(=O)N=C(N)N)cc5)cc34)cc2)n1 endpoint_name=GI50 reported_value="> 100 µM (inactive)"
compound=Cc1cc(S(=O)(=O)Nc2nnc3cnc4ccccc4n23)c(S)cc1Cl endpoint_name=GI50 reported_value="> 100 µM (inactive)"
compound=CCOC(=O)c1ccc(/N=C/C=C(\Nc2ccc(C(=O)OCC)cc2)c2ccc3ccccc3c2)cc1 endpoint_name=GI50 reported_value="31.3 µM (inactive)"
compound=N#CSC/C(Cl)=C/Cl.N#CSC/C(Cl)=C\Cl endpoint_name=GI50 reported_value="> 100 µM (inactive)"
compound=Oc1ccc(Cl)cc1CN1CCN(Cc2cc(Cl)ccc2O)C1 endpoint_name=GI50 reported_value="0.206 µM (active)"
compound="S=C1NC(c2ccccc2)NC(c2ccccc2)S1 (configuration not stated)" endpoint_name=GI50 reported_value="> 100 µM (inactive)"
compound="CN(C)CCOc1ccc2[nH]c(C(=O)N3CC(CCl)c4ccc(N)cc43)cc2c1 (configuration not stated)" endpoint_name=GI50 reported_value="0.0459 µM (active)"
compound=CC(=O)c1[nH]c(NCc2ccccc2)c(C(=S)Nc2ccccc2)c1N endpoint_name=GI50 reported_value="39.6 µM (inactive)"
compound="COc1cc2c(cc1OC)[C@@](C)(C(O)C(O)C(C)(C)O)NCC2 (some centres not stated)" endpoint_name=GI50 reported_value="> 100 µM (inactive)"
compound="O=[N+]([O-])c1ccc2c3ccccc3[s+]([O-])c2c1 (configuration not stated)" endpoint_name=GI50 reported_value="> 100 µM (inactive)"
compound=O=C(O)[C@H](CCC[C@H]1C(=O)O[C@H](c2ccccc2)[C@H](c2ccccc2)N1C(=O)OCc1ccccc1)N[C@@H](c1ccccc1)[C@H](O)c1ccccc1 endpoint_name=GI50 reported_value="37.1 µM (inactive)"
compound="COC(=O)C(=O)C(C(=O)C(=O)Nc1ccc(Cl)cc1Cl)c1nc2ccc(Cl)cc2nc1O (configuration not stated)" endpoint_name=GI50 reported_value="> 100 µM (inactive)"
compound=Nc1nc(Cl)c2ncn(Cc3cccc(CCl)c3)c2n1 endpoint_name=GI50 reported_value="10.2 µM (inactive)"
compound=Cc1ccc(C(=O)N(C2CCCCC2)C2CCCCC2)cc1/N=N/N(C)C endpoint_name=GI50 reported_value="10.4 µM (inactive)"
compound="Cc1ccc(O)cc1.Cc1cccc(O)c1.Cc1ccccc1O [CRESOL]" endpoint_name=GI50 reported_value="73.3 µM (inactive)"
compound=Cc1c(/C=N/NC(=S)Nc2ccccc2Cl)c(=O)n(-c2ccccc2)n1C endpoint_name=GI50 reported_value="43 µM (inactive)"
compound=O=C1CCc2cc3c(cc21)CC1(Cc2ccccc2C1)C3 endpoint_name=GI50 reported_value="14.2 µM (inactive)"
compound=C[C@H](CCC(=O)O)[C@H]1CC[C@H]2[C@@H]3C(=O)C[C@@H]4C[C@H](O)CC[C@]4(C)[C@H]3C[C@H](O)[C@]12C endpoint_name=GI50 reported_value="> 100 µM (inactive)"
compound=Cc1ccc(C)c2c1C/C(=C\c1ccccc1C(=O)O)C2=O endpoint_name=GI50 reported_value="> 100 µM (inactive)"
compound=COC(=O)CCCc1nc2ccccc2nc1/N=N/c1ccccc1 endpoint_name=GI50 reported_value="39.5 µM (inactive)"
compound="C[C@]12CC[C@@H]3c4cc(C=O)c(OCc5ccccc5)cc4CC[C@H]3[C@@H]1CCC2OCc1ccccc1 (some centres not stated)" endpoint_name=GI50 reported_value="56.6 µM (inactive)"
compound=Nc1ccc(Oc2ccc(C34CC5CC(C3)CC(c3ccc(Oc6ccc(N)cc6C(F)(F)F)cc3)(C5)C4)cc2)c(C(F)(F)F)c1 endpoint_name=GI50 reported_value="14.8 µM (inactive)"
compound=O=[N+]([O-])c1cccc(CSc2nc(O)c3nc[nH]c3n2)c1 endpoint_name=GI50 reported_value="> 100 µM (inactive)"
compound=Oc1cc(-c2ccccc2)nc2ncccc12 endpoint_name=GI50 reported_value="0.0681 µM (active)"
compound="CC1(C)C2CC(O)C1(C)CC2=O (configuration not stated)" endpoint_name=GI50 reported_value="> 100 µM (inactive)"
compound=CC(=O)O[C@H]1C(=O)[C@@]2(C)[C@H]([C@H](OC(=O)C3CCCCC3)[C@]3(O)C[C@H](OC(=O)[C@H](O)[C@@H](NC(=O)OC(C)(C)C)c4ccccc4)C(C)=C1C3(C)C)[C@]1(OC(C)=O)CO[C@@H]1C[C@@H]2O endpoint_name=GI50 reported_value="0.0168 µM (active)"
compound=O=C(/C=C/c1ccccc1)/C=N/N1C(=S)N(c2ccccc2)C(=N\c2ccccc2)/C1=N/c1ccccc1 endpoint_name=GI50 reported_value="> 100 µM (inactive)"
compound="O=C(O)CC1OCC=C2C[N+]3([O-])CCC45c6ccccc6NC4C1C2CC53 (configuration not stated)" endpoint_name=GI50 reported_value="> 100 µM (inactive)"
compound=CC(=O)Nc1ccccc1C=C1c2ccccc2-c2ccccc21 endpoint_name=GI50 reported_value="41.8 µM (inactive)"
compound=COc1cc(/C=N\N(C)C)cc(/C=N/N(C)C)c1O endpoint_name=GI50 reported_value="16.4 µM (inactive)"
compound=COC(=O)c1sc(=S)sc1SCc1cccc(CSc2sc(=S)sc2C(=O)OC)c1 endpoint_name=GI50 reported_value="> 100 µM (inactive)"
compound=Cc1ccc2c(c1)[nH]c(=S)n2/C=C1\C(=O)Oc2ccccc2C1=O endpoint_name=GI50 reported_value="76.7 µM (inactive)"
compound=N#Cc1cc(-c2nc3c(F)cccc3s2)ccc1N endpoint_name=GI50 reported_value="> 100 µM (inactive)"
compound="ClC(Cl)(Cl)C1CCOC1n1nnc2ccccc21 (configuration not stated)" endpoint_name=GI50 reported_value="> 100 µM (inactive)"
